Give IC50 for every item shown.
- TARGET_UNDER_TEST: human TLR9 (Homo sapiens)
- Sequence (Q9NR96 26-1032): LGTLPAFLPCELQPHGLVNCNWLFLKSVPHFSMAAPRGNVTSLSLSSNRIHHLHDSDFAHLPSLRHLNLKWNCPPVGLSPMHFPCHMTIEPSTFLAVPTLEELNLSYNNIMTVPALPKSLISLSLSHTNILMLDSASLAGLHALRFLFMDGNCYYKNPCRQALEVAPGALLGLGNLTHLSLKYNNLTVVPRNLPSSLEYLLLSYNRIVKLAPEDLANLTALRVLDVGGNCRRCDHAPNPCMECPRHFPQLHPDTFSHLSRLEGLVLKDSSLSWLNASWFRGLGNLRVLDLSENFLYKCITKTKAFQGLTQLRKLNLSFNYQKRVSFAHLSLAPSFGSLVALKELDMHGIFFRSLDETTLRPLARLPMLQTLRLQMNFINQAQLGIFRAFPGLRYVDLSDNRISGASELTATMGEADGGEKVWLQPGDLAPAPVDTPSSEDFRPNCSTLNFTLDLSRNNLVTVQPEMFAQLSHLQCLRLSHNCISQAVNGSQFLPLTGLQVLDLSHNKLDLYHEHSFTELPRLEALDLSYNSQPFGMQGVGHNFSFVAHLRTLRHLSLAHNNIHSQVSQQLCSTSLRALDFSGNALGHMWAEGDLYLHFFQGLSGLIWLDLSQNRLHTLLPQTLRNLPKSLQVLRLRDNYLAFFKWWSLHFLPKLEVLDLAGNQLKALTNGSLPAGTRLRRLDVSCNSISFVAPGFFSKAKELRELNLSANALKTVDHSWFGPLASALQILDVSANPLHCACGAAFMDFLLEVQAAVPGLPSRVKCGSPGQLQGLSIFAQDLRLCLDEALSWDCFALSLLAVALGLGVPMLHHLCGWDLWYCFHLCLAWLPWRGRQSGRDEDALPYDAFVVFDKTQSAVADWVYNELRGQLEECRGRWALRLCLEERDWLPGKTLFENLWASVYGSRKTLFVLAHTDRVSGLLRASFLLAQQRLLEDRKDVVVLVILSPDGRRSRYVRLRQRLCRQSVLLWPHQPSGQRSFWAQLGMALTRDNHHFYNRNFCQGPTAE
- ASSAY_NAME: TLR9 inhibition reporter assay (HEK-Blue SEAP)
- REPORTED_CONDITIONS: HEK-Blue cells overexpressing human TLR9, stimulated with ODN2006 5 nM, 22 hour incubation
Give bare numbers, in µM.

Reference set (3 entries):
COc1ccc(-c2[nH]c3ccc(OCC(=O)N4CCC(OC5CCNCC5)CC4)cc3c2C(C)C)cc1OC [Example 138] | 1.92
Cc1c(-c2[nH]c3ccc(OC4CCN(C5COC5)CC4)cc3c2C(C)C)cn2cnnc2c1C [Example 56] | 19.3
Cc1cc(-c2[nH]c3ccc(OC4CCN(C(=O)CN(C)C)CC4)cc3c2C(C)C)cn(C)c1=O [Example 100] | 9.84

Cc1cc(-c2[nH]c3ccc(OC4CCN(CC(C)O)CC4)cc3c2C(C)C)cc(C)n1 (stereo not drawn) [Example 69] has a reported IC50 of 0.733
